experiment: COV-362 Cancer Cell Toxicity qHTS against the NCATS CANVASS Library (AID 1347352); conditions: COV-362 viability, CellTiter-Glo luminescence, 72 h; series mostly up to 38.3 µM
Inconclusive results are not listed. Calls of active or inactive are those of the source. Calls follow the shape of the dose curve; as a rule, active = well fitted cell-killing curve with a large enough effect; inconclusive = small, poorly fitted or top-dose-only effect; inactive = flat fitted curve, though single readings scatter.
Answer with one of the outcomes given here: true (1) (active), false (0) (inactive)

Use these answered entries as a reference point.
>  <Compound>
CO[C@@]12c3c(C)cc(O)c4c(=O)occ(c34)C(=O)[C@@H]1[C@]13COC(=O)c4c(O)cc(C)c(c41)C(=O)[C@H]2[C@@H]3OC(C)=O

>  <Discrete label>
false (0)

$$$$
>  <Compound>
CCCCC1CC[C@H]2CCCC(CCC)N12 (stereo partly drawn)

>  <Discrete label>
false (0)

$$$$
>  <Compound>
CCCC[C@@H]1CC[C@H]2CCCC(CCCO)N12 (stereo partly drawn)

>  <Discrete label>
false (0)

$$$$
>  <Compound>
CCC(=O)N[C@@H](C[C@H](C)C(Cl)(Cl)Cl)C(=O)N1C(=O)C=C(OC)[C@@H]1C[C@H](C)C(Cl)Cl

>  <Discrete label>
false (0)

$$$$
>  <Compound>
C=CC(C)(C)[C@@]12C[C@H]3C(=O)N/C(=C/c4cnc[nH]4)C(=O)N3[C@@H]1Nc1ccccc12

>  <Discrete label>
false (0)

$$$$

**Query** Tell me the assay call for CC[C@@H]1CN2CCC3(Nc4cccc(OC)c4C3=O)[C@@H]2C[C@@H]1/C(=C\OC)C(=O)OC (stereo partly drawn) please.
**Result** false (0)

**Query** What do you get for C[N+](C)(C)CCc1c[nH]c2ccccc12 ?
**Result** false (0)

---

target: Rap guanine nucleotide exchange factor 4 (Homo sapiens) (UniProt Q8WZA2); assay: Confirmatory qHTS for agonist of cAMP-regulated guanine nucleotide exchange factor 4 (EPAC2) (AID 1645884); settings: EPAC2 GEF activity, Rap1B-BODIPY-GDP fluorescence; series mostly up to 154 µM;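 also: nucleotide exchange releases bodipy-GDP from Rap1 and this lowers its fluorescence; nearly all actives have a fitted effect of over 65% in size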
Sequence (Q8WZA2 whole entry, looked up): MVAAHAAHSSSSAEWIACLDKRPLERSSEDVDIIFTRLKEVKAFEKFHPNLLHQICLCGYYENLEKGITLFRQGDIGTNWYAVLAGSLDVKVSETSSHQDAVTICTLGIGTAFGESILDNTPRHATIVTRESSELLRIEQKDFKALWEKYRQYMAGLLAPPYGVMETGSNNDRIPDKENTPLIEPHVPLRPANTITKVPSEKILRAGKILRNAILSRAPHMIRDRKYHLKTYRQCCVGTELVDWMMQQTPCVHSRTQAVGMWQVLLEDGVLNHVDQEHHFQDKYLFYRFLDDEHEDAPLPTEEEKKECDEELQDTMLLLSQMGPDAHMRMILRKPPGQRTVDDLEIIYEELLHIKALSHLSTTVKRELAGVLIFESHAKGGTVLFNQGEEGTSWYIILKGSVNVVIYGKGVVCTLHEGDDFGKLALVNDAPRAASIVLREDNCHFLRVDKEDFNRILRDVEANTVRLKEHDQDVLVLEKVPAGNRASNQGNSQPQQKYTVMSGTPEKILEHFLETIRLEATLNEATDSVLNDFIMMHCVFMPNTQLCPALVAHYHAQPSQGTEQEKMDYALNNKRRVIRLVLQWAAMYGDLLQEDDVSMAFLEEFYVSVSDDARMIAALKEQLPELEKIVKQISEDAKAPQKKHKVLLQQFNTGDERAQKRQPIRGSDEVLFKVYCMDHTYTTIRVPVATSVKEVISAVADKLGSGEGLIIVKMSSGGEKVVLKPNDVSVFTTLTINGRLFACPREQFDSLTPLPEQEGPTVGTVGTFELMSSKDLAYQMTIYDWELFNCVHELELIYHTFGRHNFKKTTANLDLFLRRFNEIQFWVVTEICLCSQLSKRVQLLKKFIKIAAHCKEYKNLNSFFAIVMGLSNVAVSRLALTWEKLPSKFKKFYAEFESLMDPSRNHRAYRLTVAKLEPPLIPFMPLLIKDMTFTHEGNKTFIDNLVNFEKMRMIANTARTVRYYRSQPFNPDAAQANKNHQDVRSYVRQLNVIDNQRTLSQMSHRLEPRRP
Records with an inconclusive call do not appear. Active and inactive are the calls of the source. Calls come from the whole dose curve; as a rule, active = well fitted activation curve with a large enough effect; inconclusive = small, poorly fitted or top-dose-only effect; inactive = no such curve, though single readings can be large or run the other way.
Measurement label: activation

>  <Molecule>
COc1cccc(C(c2nnnn2Cc2ccccc2)N2CCC(n3c(=O)[nH]c4ccccc43)CC2)c1OC (stereo not given)

>  <Measurement label>
activation

>  <Result>
inactive

$$$$
>  <Molecule>
CC(C)=CCCC1(C)C=Cc2c(O)c3c(c(CC=C(C)C)c2O1)OC12C(=CC4CC1C(C)(C)OC2(C/C=C(/C)C(=O)O)C4=O)C3=O (stereo not given)

>  <Measurement label>
activation

>  <Result>
inactive

$$$$
>  <Molecule>
Cc1c(NS(=O)(=O)c2ccccc2)ccc([N+](=O)[O-])c1Cl

>  <Measurement label>
activation

>  <Result>
inactive

$$$$

---

biological target: 3',5'-cyclic-AMP phosphodiesterase 4B (Homo sapiens); assay: qHTS Assay for Inhibitors of PDE-IV (AID 607); details: HEK293 ACTOne CNG channel cells, membrane potential fluorescence; series mostly up to 22.9 µM; also: % of control where 0% means no effect
Results filed as inconclusive are left out. Activity calls are given as the source filed them. Calls come from the whole dose curve; as a rule, active = well fitted activation curve with a large enough effect in the main read-out, with a control signal flat (not every such curve was filed as active); inconclusive = small, poorly fitted or top-dose-only effect, or effect the other way, or a change in a side signal; inactive = flat fitted curve, though single readings scatter.
Measurement label: outcome

>  <Smiles representation>
COC1=CC(=O)O[C@@H](/C=C\c2ccccc2)C1

>  <outcome>
inactive

$$$$
>  <Smiles representation>
CO[C@H]1C=C2CCN(C)[C@@H]2[C@@H]2c3cc4c(cc3C(=O)O[C@H]21)OCO4

>  <outcome>
inactive

$$$$
>  <Smiles representation>
COP(=O)(OC)[C@@H](O)C(Cl)(Cl)Cl

>  <outcome>
inactive

$$$$
>  <Smiles representation>
CC(=O)N[C@@H]1CCSC1=O

>  <outcome>
inactive

$$$$
>  <Smiles representation>
COc1cc2c(cc1O)C[C@H]1c3c(cc(O)c(OC)c3-2)CCN1C

>  <outcome>
inactive

$$$$

**Query** Looking for the measured outcome of O=C(c1csnn1)N1CCC[C@@]2(CCN(Cc3ccncc3)C2)C1 , can you help?
**Result** inactive

**Query** What do you get for CN(C)C(=O)Oc1cc(OC(=O)N(C)C)cc([C@@H](O)CNC(C)(C)C)c1 ?
**Result** inactive

**Query** What do you get for CN1CC[C@]2(C)c3cc(O)ccc3N(C)[C@@H]12 ?
**Result** inactive

**Query** What do you get for O=C(Nc1ccccc1)N1CC[C@@]2(CCCNC2)C1 ?
**Result** inactive

**Query** What do you get for COCC(=O)N1CCC2(CCCN(Cc3ccncc3)C2)CC1 ?
**Result** inactive

**Query** What do you get for COc1cc2c(cc1O)[C@H]1Cc3ccc(OC)c(O)c3CN1CC2 ?
**Result** inactive

---

system: HB3; assay: qHTS profiling for inhibitors of Plasmodium falciparum proliferation (AID 504749); also: nearly all actives have a fitted effect of over 60% in size; also: potency is read from the fitted curve at half-maximal effect; details: P. falciparum in erythrocytes, SYBR Green DNA, 72 h; series mostly up to 28.7 µM
Results filed as inconclusive are left out. Activity calls are given as the source filed them. Calls follow the shape of the dose curve; as a rule, active = well fitted inhibition curve with a large enough effect; inconclusive = small, poorly fitted or top-dose-only effect; inactive = flat fitted curve, though single readings scatter.
Measurement label: Potency

// known answers, use as guide
>  <Compound>
CCCC[N+]1(C)C2CC(OC(=O)C(CO)c3ccccc3)CC1C1OC12 (configuration not stated)

>  <Assay system>
HB3

>  <Result>
inactive

$$$$
>  <Compound>
COc1cc2c(cc1OC)[C@@]13CCN4CC5=CCOC6CC(=O)N2C1[C@H]6[C@@H]5C[C@@H]43 (some centres not stated)

>  <Assay system>
HB3

>  <Result>
inactive

$$$$
>  <Compound>
[Hg+][c]1ccccc1

>  <Assay system>
HB3

>  <Result>
inactive

$$$$
>  <Compound>
Oc1ccc2c3c1O[C@H]1[C@@H](O)CC[C@@]4(O)C(C2)N(CC2CCC2)CCC314 (some centres not stated)

>  <Assay system>
HB3

>  <Result>
inactive

$$$$

**Query** Looking for the measured Potency of C[C@H]1CN(C2CCC(C#N)(c3ccc(F)cc3)CC2)CC[C@@]1(C(=O)O)c1ccccc1 (some centres not stated) , can you help?
**Result** inactive

---

test system: CP185; assay: qHTS profiling for inhibitors of Plasmodium falciparum proliferation (AID 504749); also: nearly all actives have a fitted effect of over 60% in size; settings: P. falciparum in erythrocytes, SYBR Green DNA, 72 h; series mostly up to 28.7 µM
Results filed as inconclusive are left out. Calls of active or inactive are those of the source. The call rests on the fitted dose curve; in most records, active means well fitted inhibition curve with a large enough effect; inconclusive means small, poorly fitted or top-dose-only effect; inactive means flat fitted curve, though single readings scatter.
Answer with one of the outcomes given here: active, inactive

>  <Compound>
C[C@]12CC[C@H](OS(=O)(=O)O)CC1=CCC1C2CC[C@]2(C)C(=O)CC[C@@H]12 (stereo partly specified)

>  <Discrete label>
inactive

$$$$
>  <Compound>
Oc1ccc2c3c1O[C@H]1[C@@H](O)CC[C@@]4(O)C(C2)N(CC2CCC2)CCC314 (stereo partly specified)

>  <Discrete label>
inactive

$$$$
>  <Compound>
CCNC[C@H](O)c1cccc(O)c1

>  <Discrete label>
inactive

$$$$
>  <Compound>
Clc1ccc([C@@H](OCCN2CCCCC2)c2ccccc2)cc1

>  <Discrete label>
inactive

$$$$
>  <Compound>
N[C@H]1C[C@H]1c1ccccc1

>  <Discrete label>
inactive

$$$$
>  <Compound>
CNc1ccc(C(=O)CC(O)CCC(C)C2OC(=O)CC(O)CC(=O)CC(O)CC(O)CC(O)CC(O)CC3(O)CC(O)C(C(=O)OC)C(CC(O[C@@H]4OC(C)C(O)C(N)C4O)/C=C/C=C/C=C/C=C/C=C/C=C/C=C/C2C)O3)cc1 (stereo partly specified)

>  <Discrete label>
inactive

$$$$
>  <Compound>
C=CC1CN2CCC1CC2C(OC(=O)OCC)c1ccnc2ccc(OC)cc12 (stereo unspecified)

>  <Discrete label>
active

$$$$
>  <Compound>
O=c1ccc2cc(O[C@H]3O[C@@H](CO)[C@@H](O)[C@@H](O)[C@@H]3O)c(O)cc2o1

>  <Discrete label>
inactive

$$$$
>  <Compound>
C#CCN(C)[C@@H](C)Cc1ccccc1

>  <Discrete label>
inactive

$$$$
>  <Compound>
CCCC[N+]1(C)C2CC(OC(=O)C(CO)c3ccccc3)CC1C1OC12 (stereo unspecified)

>  <Discrete label>
inactive

$$$$

**Query** Tell me the assay call for CC(=O)OC1C[C@H](O[C@@H]2C(O)C[C@H](O[C@@H]3C(O)C[C@@H](OC4CC[C@]5(C)C(CCC6C5CC(O)[C@@]5(C)C(C7=CC(=O)OC7)CC[C@@]65O)C4)OC3C)OC2C)O[C@H](C)[C@H]1O[C@H]1OC(CO)C(O)C(O)C1O (stereo partly specified) please.
**Result** inactive

**Query** What do you get for CC([C@H](O)c1ccccc1)N(C)C (stereo partly specified) ?
**Result** inactive

**Query** What do you get for C[C@@]12CCC(=O)C=C1C=C[C@H]1[C@H]3CC[C@](O)(CCC(=O)O)[C@]3(C)CC[C@@H]12 ?
**Result** inactive

**Query** What do you get for CNC(C)[C@@H](O)c1ccccc1 (stereo partly specified) ?
**Result** inactive

**Query** What do you get for CCN[C@]1(c2cccs2)CCCCC1=O ?
**Result** inactive
